# max response annotations
# test-summary: qHTS assay for small molecule agonists of retinoid X receptor alpha signaling (AID 588544)
# experimental-setup: HEK293T RXRa-UAS-bla, beta-lactamase reporter, 18 h; 530 nm emission
Inconclusive results are not listed.
Provide the reading as a plain figure in %.

CCCCCCCCCCCCCCC(=O)OC: 2.13

Fill in max response for record `C=C(C)C(=O)OCC(CC)(COC(=O)C(=C)C)COC(=O)C(=C)C`
-12.4

Fill in max response for record `CS(=O)(=O)c1ccc(Cl)cc1`
0.314

Fill in max response for record `CCCCCCCCCCCC(=O)N(C)CC(=O)O`
21.8
